test: Light absorption characteristics in a solution state (UV-Vis-NIR spectrometer); format: physicochemical; conditions: in dichloromethane, 1×10^−5 M
// values below are reported λmax (nm) (solution)
MEASURED QUANTITY: λmax (nm) (solution)

COMPOUND: CCCCCCOc1cc(-c2c3c(c(-c4cc(OCCCCCC)c(-c5cc6c(s5)c5sc(CCCCCC)cc5n6CCCCCC)s4)c4n[se]nc24)N=[Se]=N3)sc1-c1cc2c(s1)c1sc(CCCCCC)cc1n2CCCCCC [Synthesis Example 5]
MEASURED QUANTITY: λmax (nm) (solution)
RECORDED RESULT: 1376 nm
//
COMPOUND: CCCCCCOc1cc(-c2c3nsnc3c(-c3cc(OCCCCCC)c(-c4cc5c(s4)c4sc(CCCCCC)cc4n5CCCCCC)s3)c3nc4c5ccccc5c5ccccc5c4nc23)sc1-c1cc2c(s1)c1sc(CCCCCC)cc1n2CCCCCC [Synthesis Example 4]
MEASURED QUANTITY: λmax (nm) (solution)
RECORDED RESULT: 1020 nm
//
COMPOUND: CCCCCCOc1cc(-c2c3c(c(-c4cc(OCCCCCC)c(-c5cc6c(s5)c5sc(CCCCCC)cc5n6CCCCCC)s4)c4nsnc24)N=[Se]=N3)sc1-c1cc2c(s1)c1sc(CCCCCC)cc1n2CCCCCC [Synthesis Example 1]
MEASURED QUANTITY: λmax (nm) (solution)
RECORDED RESULT: 1256 nm
//
COMPOUND: CCCCCCOc1cc(-c2c3c(c(-c4cc(OCCCCCC)c(-c5cc6c(s5)c5sc(CCCCCC)cc5n6CCCCCC)s4)c4nsnc24)N=S=N3)sc1-c1cc2c(s1)c1sc(CCCCCC)cc1n2CCCCCC [Synthesis Example 2]
MEASURED QUANTITY: λmax (nm) (solution)
RECORDED RESULT: 1076 nm
//
COMPOUND: CCCCCCOc1cc(-c2c3nsnc3c(-c3cc(OCCCCCC)c(-c4cc5c(s4)c4sc(CCCCCC)cc4n5CCCCCC)s3)c3nc4c5ncccc5c5cccnc5c4nc23)sc1-c1cc2c(s1)c1sc(CCCCCC)cc1n2CCCCCC [Synthesis Example 3]
MEASURED QUANTITY: λmax (nm) (solution)
RECORDED RESULT: 1143 nm

* * *

Let's look at some compounds and their measured λmax (nm) (thin film).
assay: Light absorption characteristics in a thin film state (UV-Vis-NIR spectrometer); assay type: physicochemical; settings: thin film spin-coated from chloroform on glass substrate

COMPOUND: CCCCCCOc1cc(-c2c3nsnc3c(-c3cc(OCCCCCC)c(-c4cc5c(s4)c4sc(CCCCCC)cc4n5CCCCCC)s3)c3nc4c5ncccc5c5cccnc5c4nc23)sc1-c1cc2c(s1)c1sc(CCCCCC)cc1n2CCCCCC [Synthesis Example 3]
λmax (nm) (thin film): 1166

COMPOUND: CCCCCCOc1cc(-c2c3nsnc3c(-c3cc(OCCCCCC)c(-c4cc5c(s4)c4sc(CCCCCC)cc4n5CCCCCC)s3)c3nc4c5ccccc5c5ccccc5c4nc23)sc1-c1cc2c(s1)c1sc(CCCCCC)cc1n2CCCCCC [Synthesis Example 4]
λmax (nm) (thin film): 1058

COMPOUND: CCCCCCOc1cc(-c2c3c(c(-c4cc(OCCCCCC)c(-c5cc6c(s5)c5sc(CCCCCC)cc5n6CCCCCC)s4)c4n[se]nc24)N=[Se]=N3)sc1-c1cc2c(s1)c1sc(CCCCCC)cc1n2CCCCCC [Synthesis Example 5]
λmax (nm) (thin film): 1285

COMPOUND: CCCCCCOc1cc(-c2c3c(c(-c4cc(OCCCCCC)c(-c5cc6c(s5)c5sc(CCCCCC)cc5n6CCCCCC)s4)c4nsnc24)N=S=N3)sc1-c1cc2c(s1)c1sc(CCCCCC)cc1n2CCCCCC [Synthesis Example 2]
λmax (nm) (thin film): 1120

COMPOUND: CCCCCCOc1cc(-c2c3c(c(-c4cc(OCCCCCC)c(-c5cc6c(s5)c5sc(CCCCCC)cc5n6CCCCCC)s4)c4nsnc24)N=[Se]=N3)sc1-c1cc2c(s1)c1sc(CCCCCC)cc1n2CCCCCC [Synthesis Example 1]
λmax (nm) (thin film): 1226

* * *

assay: Light absorption characteristics in a solution state (UV-Vis-NIR spectrometer); format: physicochemical; settings: CH2Cl2 Solution; in synthesis example
MEASURED QUANTITY: UV-vis: λmax (nm)

COMPOUND: CCCCCCOc1cc(-c2c3c(c(-c4cc(OCCCCCC)c(-c5cc6c(s5)c5sc(CCCCCC)cc5n6CCCCCC)s4)c4n[se]nc24)N=[Se]=N3)sc1-c1cc2c(s1)c1sc(CCCCCC)cc1n2CCCCCC [Synthesis Example 5]
RECORDED RESULT: 1376
--
COMPOUND: CCCCCCOc1cc(-c2c3nsnc3c(-c3cc(OCCCCCC)c(-c4cc5c(s4)c4sc(CCCCCC)cc4n5CCCCCC)s3)c3nc4c5ncccc5c5cccnc5c4nc23)sc1-c1cc2c(s1)c1sc(CCCCCC)cc1n2CCCCCC [Synthesis Example 3]
RECORDED RESULT: 1143
--
COMPOUND: CCCCCCOc1cc(-c2c3nsnc3c(-c3cc(OCCCCCC)c(-c4cc5c(s4)c4sc(CCCCCC)cc4n5CCCCCC)s3)c3nc4c5ccccc5c5ccccc5c4nc23)sc1-c1cc2c(s1)c1sc(CCCCCC)cc1n2CCCCCC [Synthesis Example 4]
RECORDED RESULT: 1020
--
COMPOUND: CCCCCCOc1cc(-c2c3c(c(-c4cc(OCCCCCC)c(-c5cc6c(s5)c5sc(CCCCCC)cc5n6CCCCCC)s4)c4nsnc24)N=S=N3)sc1-c1cc2c(s1)c1sc(CCCCCC)cc1n2CCCCCC [Synthesis Example 2]
RECORDED RESULT: 1114
--
COMPOUND: CCCCCCOc1cc(-c2c3c(c(-c4cc(OCCCCCC)c(-c5cc6c(s5)c5sc(CCCCCC)cc5n6CCCCCC)s4)c4nsnc24)N=[Se]=N3)sc1-c1cc2c(s1)c1sc(CCCCCC)cc1n2CCCCCC [Synthesis Example 1]
RECORDED RESULT: 1256
